// data source = ChEMBL document CHEMBL1157539

Tested on: Plasmodium falciparum
Experiment: GSK_TCMDC: Inhibition of Plasmodium falciparum 3D7 in whole erythrocytes, using parasite LDH activity as an index of growth.
Assay type: functional, organism-based
Conditions: Plasmodium falciparum, 3D7
Threshold 900 nM. XC50 below it: yes. XC50 at it or above: no.

Ask | Lab note: confirm whether the reported XC50 for this molecule is below 900 nM, equality not counting. molecule: Cc1nc(NCc2ccccc2)cc(NCC(O)c2ccc(O)cc2)n1 (stereo not drawn)
Reply | no

Ask | Is it true that XC50 reported for CC1CN(CC(O)Cn2c3ccc(Br)cc3c3cc(Br)ccc32)CC(C)O1 (stereo not drawn) is less than 900 nM?
Reply | yes

Ask | I'd appreciate it if you could check whether Cc1nc(C)c(-c2ccc(Cl)cc2)c(O)c1I has XC50 smaller than 900 nM.
Reply | yes

Ask | Report whether reported XC50 is lower than 900 nM (strictly) for COc1ccc(CNCc2ccc(F)cc2)cc1-c1ccc(S(=O)(=O)NCCN2CCCC2)s1
Reply | yes

Ask | Is 900 nM strictly greater than the molecule's reported XC50? molecule: COc1ccc2nccc([C@@H](O)CN3CCC(NCc4cc5c(cc4F)SCC(=O)N5)CC3)c2n1
Reply | no

Ask | Consider CCc1ccc(NC(=O)N(CCCN2CCN(C)CC2)Cc2csc(-c3ccc(CNCc4ccccc4)cc3)n2)cc1 . Does its XC50 lie strictly below 900 nM?
Reply | no

Ask | Criterion: XC50 strictly below 900 nM. Is it met by Cc1nnc(N2C(=N)SC(=Cc3ccc(-c4ccc(OC(F)(F)F)cc4)o3)C2=O)s1 ?
Reply | yes

Ask | Regarding CCN(CC)Cc1cccc(-c2cc3c(-c4ccc(C(=O)O)c(C(C)C)c4)ccnc3[nH]2)c1OC , kindly confirm whether its XC50 is beneath 900 nM.
Reply | yes

Ask | Does the reported XC50 of the following molecule sit strictly below 900 nM? CS(=O)(=O)c1ccc(-c2nc(NCC3CCCCC3)cc(C(F)(F)F)n2)cc1
Reply | yes

Ask | Item COc1ccc(CCCN2C(=O)C(c3ccccc3)(c3ccccc3)N=C2N)cc1 : XC50 beneath 900 nM, strictly?
Reply | no

Ask | Is it true that XC50 reported for O=C(/C=C/c1cc([N+](=O)[O-])ccc1Cl)NC1CCC(CN2CCC(c3c[nH]c4ccccc34)CC2)CC1 (stereo not drawn) is less than 900 nM?
Reply | yes

Ask | Identify whether the molecule O=C(CCCCCNC(=O)c1ccc(O)c(-c2ccc(Cl)c(Cl)c2)c1)NCc1cccc(C(F)(F)F)c1 records XC50 below 900 nM.
Reply | yes

Ask | Hi there! Is XC50 for OC(CNCc1ccccc1OCc1ccccc1)c1cccc(C(F)(F)F)c1 (stereo not drawn) below 900 nM, do you know?
Reply | yes

Ask | Is XC50 strictly under 900 nM for the entry CCN(CC)CCN(Cc1ccc(-c2ccc(C(F)(F)F)cc2)cc1)C(=O)Cn1c(CCc2ccc(F)c(C#N)c2)nc(=O)c2ccccc21 ?
Reply | yes

Ask | API: query returns whether the molecule falls strictly under 900 nM in XC50. Query: CCCCCCC(C)(C)c1cc(O)c2c3c(c(=O)oc2c1)CCN(Cc1ccccc1)C3
Reply | yes

Ask | Just wondering, is XC50 of N=C(N)NC(=O)Nc1cc(Cl)c(Cl)c(Br)c1 below 900 nM?
Reply | yes

Ask | is_below(XC50, 900 nM) for CC(=O)c1cccc(Nc2nc3ccc(OCc4cc(Cl)cc(Cl)c4)c(C#N)c3[nH]2)c1 ?
Reply | yes

Ask | Here's an entry: O=C(Nc1ccc(-c2nc3ccccc3[nH]2)cc1)c1ccc(Cl)s1 . Is its XC50 below 900 nM?
Reply | yes

Ask | # strict comparison: is reported XC50 < 900 nM? input = CCOc1cc2c(cc1S(=O)(=O)c1ccc(COc3ccc(C(F)(F)F)cc3)cc1)CCN(C)CC2
Reply | no

Ask | Input COc1ccc(CNC2CCN(C)CC2)cc1-c1ccc(S(=O)(=O)NCc2ccccc2)cc1 ; condition: XC50 strictly below 900 nM. Does it hold?
Reply | yes

Ask | # strict comparison: is reported XC50 < 900 nM? input = COc1cc(NC(=O)c2sc(-c3ccc(Cl)cc3)cc2NC(=O)c2ccncc2)ccc1OCCN1CCCC1
Reply | yes

Ask | Please determine if COc1cccc(-c2nn(C)c3sc(C(=O)Nc4cccnc4)cc23)c1 is below 900 nM in terms of XC50.
Reply | no

Ask | Strictly below 900 nM: is that where XC50 of CS(=O)(=O)c1ccc(CNCc2ccc(-c3cccc(-c4nc5cc(C(F)(F)F)ccc5[nH]4)c3)cc2)cc1 sits?
Reply | yes

Ask | Here's an entry: CC(NCCC1CCC(NC(=O)N[C@H](C)C(O)(c2ccccc2)c2ccccc2)CC1)c1cccc2ccccc12 (stereo partly drawn) . Is its XC50 below 900 nM?
Reply | no

Ask | Answer whether the molecule CC[C@H]1CN2CC[C@@H]1C[C@H]2[C@H](O)c1cc(N2CCC(c3ccccc3)CC2)nc2ccc(OC)cc12 has XC50 strictly less than 900 nM
Reply | yes

Ask | Find out if reported XC50 for CCNC(=O)N[C@@H]1CN[C@@H](C#Cc2cc3c(Nc4ccc(OCc5cccc(F)c5)c(Cl)c4)ncnc3s2)C1 is less than 900 nM
Reply | no

Ask | Does the reported XC50 of Cc1ccc(NC(=O)c2ccc3ncccc3c2)cc1OC1CCN(Cc2ccsc2)CC1 stay below 900 nM?
Reply | no

Ask | Please state whether XC50 is below 900 nM for CCOc1cc(C(=O)Nc2ccc3nc(N4CCCCC4)cc(C)c3c2)cc(OCC)c1OCC
Reply | yes

Ask | Criterion: XC50 strictly below 900 nM. Is it met by COc1cc(C)cc(CN2CCC(Cc3ccccc3)CC2)c1O ?
Reply | no

Ask | Check if XC50 falls below 900 nM for O=C(Nc1cccc(CN2CCN(Cc3ccc(O)cc3)CC2)c1)c1ccc(-c2ccccc2)cc1 .
Reply | yes

Ask | Dear reviewer, please state whether N#Cc1ccc2c(c1)CCN(CCC1CCC(NC(=O)c3ccc(-c4ccccn4)s3)CC1)CC2 (stereo not drawn) has XC50 strictly beneath 900 nM.
Reply | no

Ask | Dear reviewer, please state whether Cc1[nH]c2c(C)cccc2c1C1CCN(CCC2CCN(C(=O)/C=C/c3ccc(Cl)c(Cl)c3)CC2)CC1 has XC50 strictly beneath 900 nM.
Reply | yes
